Molecular target: Protein arginine N-methyltransferase 1 (Homo sapiens)
Sequence (Q99873 whole entry): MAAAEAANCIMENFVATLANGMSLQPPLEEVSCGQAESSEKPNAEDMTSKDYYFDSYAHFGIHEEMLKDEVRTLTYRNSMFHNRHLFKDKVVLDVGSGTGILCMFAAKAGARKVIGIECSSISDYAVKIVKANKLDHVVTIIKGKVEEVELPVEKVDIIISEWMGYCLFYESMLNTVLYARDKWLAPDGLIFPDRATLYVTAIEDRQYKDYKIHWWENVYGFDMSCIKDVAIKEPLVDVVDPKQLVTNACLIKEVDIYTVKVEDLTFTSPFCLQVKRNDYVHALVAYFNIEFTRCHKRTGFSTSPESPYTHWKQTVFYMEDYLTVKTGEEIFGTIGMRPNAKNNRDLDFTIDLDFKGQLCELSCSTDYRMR
attribute.measured: IC50

stdin: Hello, I am looking for reported IC50 with Protein arginine N-methyltransferase 1 (Homo sapiens) for C[C@H](N)C(=O)NCc1cccc(-n2nc(C(F)(F)F)cc2-c2nnc(-c3cccc4ncsc34)o2)c1 . Could you help?
stdout: > 25 µM

----------
Target: Cytochrome P450 2C9 (Homo sapiens)
Sequence (P11712 whole entry): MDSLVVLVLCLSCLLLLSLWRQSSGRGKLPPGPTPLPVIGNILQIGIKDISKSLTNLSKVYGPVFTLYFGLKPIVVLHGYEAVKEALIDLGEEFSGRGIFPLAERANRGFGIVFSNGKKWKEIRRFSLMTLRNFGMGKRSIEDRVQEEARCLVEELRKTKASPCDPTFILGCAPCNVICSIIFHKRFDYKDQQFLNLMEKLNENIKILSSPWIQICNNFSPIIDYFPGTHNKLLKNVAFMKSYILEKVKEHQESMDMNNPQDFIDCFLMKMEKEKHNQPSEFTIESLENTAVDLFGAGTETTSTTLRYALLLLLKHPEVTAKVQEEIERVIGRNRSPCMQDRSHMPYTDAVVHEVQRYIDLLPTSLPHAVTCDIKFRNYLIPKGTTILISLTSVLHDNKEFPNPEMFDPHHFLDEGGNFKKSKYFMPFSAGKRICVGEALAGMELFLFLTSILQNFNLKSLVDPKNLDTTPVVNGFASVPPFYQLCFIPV
Assay: Inhibition of CYP2C9 expressed in human hepatocytes
pIC50: −log10 of the molar value.
attribute.measured: pIC50

stdin: Hello, I am looking for reported pIC50 with Cytochrome P450 2C9 (Homo sapiens) for C[C@H](N)C(=O)NCc1cccc(-n2nc(C(F)(F)F)cc2-c2nnc(-c3cccc4ncsc34)o2)c1 . Could you help?
stdout: < 4.00
